Target: hu c-20S β5c-subunit (Homo sapiens, UniProt P20618+P28074)
Experiment: N,C-capped dipeptides IC50, succ-LLVY-AMC fluorescence assay
Classification scheme (IC50): low: < 600 nM; mid: ≥ 600 nM and < 1000 nM; high: ≥ 1000 nM

Some solved entries appear below for comparison.
# mol, discrete-label
measured = [
    ("CC(=O)N[C@@H](Cc1ccc(F)cc1)C(=O)NCc1cccc2ccccc12", "high"),
    ("COC[C@H](NC(=O)[C@H](CC(=O)NC1COC1)NS(C)(=O)=O)C(=O)NCc1cccc2ccccc12", "high"),
]

IN: Assign a bin to "Cc1ccc(S(=O)(=O)N[C@@H](CCC(=O)NC(C)(C)C)C(=O)N[C@@H](C)C(=O)NCc2cccc(C(F)(F)F)c2)cc1"
OUT: low

====

Target: hu i-20S β5i-subunit (Homo sapiens, UniProt P20618+P28062)
Experiment: N,C-capped dipeptides IC50, Ac-ANW-AMC fluorescence assay
measured-quantity: IC50 (nM)
// units = nM; emit number, no label

The following compounds have reported results that may help.
# mol, IC50 [nM]
measured = [
    ("COC[C@H](NC(=O)[C@H](CC(=O)NOC(C)(C)C)NS(=O)(=O)c1ccc(C)cc1)C(=O)NCc1cccc2ccccc12", 4.4),
    ("COC[C@H](NC(=O)OC(C)(C)C)C(=O)N[C@@H](C)C(=O)NCc1cccc2ccccc12", 77800),
]

IN: Tell me the measured IC50 of "C[C@H](NC(=O)[C@H](CC(=O)NOC(C)(C)C)NC(=O)CCc1ccccc1)C(=O)NCc1cccc2[nH]ccc12" , please.
OUT: 25

====

Tested on: Karpas 1106p cells
Test: Cytotoxicity (LD50) against Karpas lymphoma cells
Type: cell-based, human
Details: Table 3
From the text: Table 3 lists the inhibition kinetic parameters, selectivity index, and calculated log Ps of selected dipeptides.
This section presents molecules with their documented LD50 values.

# mol, system-under-test, measured-quantity, readout-value
records = [
    ("COC[C@H](NC(=O)[C@H](CC(=O)NOC(C)(C)C)NC(=O)Cc1ccccc1)C(=O)NCc1cccc2ccccc12", "Karpas 1106p cells", "LD50", ">100 µM"),
    ("COC[C@H](NC(=O)[C@H](CC(=O)NOC(C)(C)C)NC(=O)CN1CCOCC1)C(=O)NCc1cccc2ccccc12", "Karpas 1106p cells", "LD50", ">100 µM"),
]

IN: Value wanted: LD50 (Karpas 1106p cells) of entry "COC[C@H](NC(=O)[C@H](CC(=O)NC1COC1)NS(C)(=O)=O)C(=O)NCc1cccc2ccccc12"
OUT: >100 µM

====

Biological target: hu c-20S β5c-subunit (Homo sapiens, UniProt P20618+P28074)
Experiment: N,C-capped dipeptides IC50, succ-LLVY-AMC fluorescence assay
Type: biochemical
measured-quantity: log10 IC50 (log10 of the value in nM)
Hello, just confirming the data are log10 of IC50 with units of nM.

The following compounds have reported results that may help.
# mol, measured-quantity, readout-value
rows = [
    ("COC[C@H](NC(=O)[C@H](CC(=O)NOC(C)(C)C)NC(=O)Cc1ccccc1)C(=O)NCc1cccc2ccccc12", "log10 IC50", 2.87),
    ("COC[C@H](NC(=O)[C@H](CC(=O)NOC(C)(C)C)NC(=O)CCc1ccccc1)C(=O)NCc1cccc2cccnc12", "log10 IC50", 3.13),
]

IN: Tell me the measured log10 IC50 of "COC[C@H](NC(=O)[C@H](CC(=O)NOC(C)(C)C)NC(=O)CCCc1ccccc1)C(=O)NCc1cccc2ccccc12" , please.
OUT: 2.88

IN: Follow-up item: "COC[C@H](NC(=O)CCc1ccccc1)C(=O)N[C@@H](Cc1ccc(F)cc1)C(=O)NCc1cccc2ccccc12"
OUT: 4.88

IN: Follow-up item: "C[C@H](NC(=O)[C@H](CCC(=O)NC(C)(C)C)NC(=O)CCc1ccccc1)C(=O)NCCc1cccc2ccccc12"
OUT: 3.98

IN: Follow-up item: "C[C@H](NC(=O)[C@H](CC(=O)NOC(C)(C)C)NC(=O)CCc1ccccc1)C(=O)NCc1cccc2ncccc12"
OUT: 4.12

IN: Follow-up item: "CC(C)(C)NC(=O)C[C@H](NC(=O)CCc1ccccc1)C(=O)N[C@@H](Cc1ccc(F)cc1)C(=O)NCc1ccc(-c2ccccc2)cc1"
OUT: 2.85

IN: Follow-up item: "C[C@H](NC(=O)[C@H](CCC(=O)NC(C)(C)C)NC(=O)CCc1ccccc1)C(=O)NOc1ccccc1"
OUT: 2.82

IN: Follow-up item: "CC(C)(C)NC(=O)C[C@H](NC(=O)C(=O)c1c[nH]c2ccccc12)C(=O)N[C@@H](Cc1ccc(F)cc1)C(=O)NCc1cccc2ccccc12"
OUT: 1.57

IN: Follow-up item: "Cc1ccc(S(=O)(=O)N[C@@H](CCC(=O)NC(C)(C)C)C(=O)N[C@@H](C)C(=O)NOc2ccccc2)cc1"
OUT: 2.78

IN: Follow-up item: "C[C@H](NC(=O)[C@H](CC(=O)NOC(C)(C)C)NC(=O)CCc1ccccc1)C(=O)NCc1cccc2[nH]ccc12"
OUT: 2.38

IN: Follow-up item: "COC[C@H](NC(=O)[C@H](CC(=O)NOC(C)(C)C)NC(=O)CCc1ccccc1)C(=O)NCc1cccc(OC)c1OC"
OUT: 3.11

IN: Follow-up item: "CC(C)[C@H](NC(=O)[C@H](CC(=O)NOC(C)(C)C)NC(=O)CCc1ccccc1)C(=O)NCc1cccc2ccccc12"
OUT: 2.36

IN: Follow-up item: "COC[C@H](NC(=O)[C@H](CC(=O)NOC(C)(C)C)NC(=O)CCc1ccccc1)C(=O)NCc1cccc(OC)c1"
OUT: 1.99

IN: Follow-up item: "C[C@H](NC(=O)[C@H](CC(=O)NOC(C)(C)C)NC(=O)CCc1ccccc1)C(=O)NCc1ccnc2ccccc12"
OUT: 4.45

IN: Follow-up item: "COC[C@H](NC(=O)[C@H](CC(=O)NOC(C)(C)C)NC(=O)c1cc(C)on1)C(=O)NCc1cccc2ccccc12"
OUT: 2.79

IN: Follow-up item: "COC[C@H](NC(=O)[C@H](CC(=O)NOC(C)(C)C)NS(=O)(=O)c1ccc(C)cc1)C(=O)NCc1cccc2ccccc12"
OUT: 2.79

IN: Follow-up item: "Cc1ccc(S(=O)(=O)N[C@@H](CC(=O)NOC(C)(C)C)C(=O)N[C@@H](C)C(=O)NCc2cccc3ccccc23)cc1"
OUT: 3.36

IN: Follow-up item: "COC[C@H](NC(=O)[C@H](CC(=O)NOC(C)(C)C)NC(=O)CCc1ccccc1)C(=O)NCc1cccc2c1NCCC2"
OUT: 4.89

IN: Follow-up item: "CC(C)(C)NC(=O)C[C@H](NC(=O)CCc1ccccc1)C(=O)N[C@@H](Cc1ccncc1)C(=O)NCc1cccc2ccccc12"
OUT: 2.64

IN: Follow-up item: "COC[C@H](NC(=O)[C@H](CC(=O)NC1COC1)NS(=O)(=O)c1ccc(C)cc1)C(=O)NCc1cccc2ccccc12"
OUT: 4.29

====

Molecular target: hu c-20S β5c-subunit (Homo sapiens, UniProt P20618+P28074)
Experiment: N,C-capped dipeptides IC50, succ-LLVY-AMC fluorescence assay
pIC50: −log10 of the molar value.
measured-quantity: pIC50

The following compounds have reported results that may help.
# mol, readout-value
rows = [
    ("CC(C)(C)NC(=O)C[C@H](NC(=O)CCc1ccccc1)C(=O)N[C@@H](Cc1ccc(F)cc1)C(=O)NCc1cccc(-c2ccccc2)c1", "< 4.00"),
    ("COC[C@H](NC(=O)OC(C)(C)C)C(=O)N[C@@H](C)C(=O)NCc1cccc2ccccc12", "< 4.00"),
]

IN: Tell me the measured pIC50 of "CC(C)(C)NC(=O)C[C@H](NC(=O)CCc1ccccc1)C(=O)N[C@@H](Cc1ccc(F)cc1)C(=O)NCc1cccc2ccccc12" , please.
OUT: < 4.00
